assay.system: Zap1 (UniProt P47043)
Sequence: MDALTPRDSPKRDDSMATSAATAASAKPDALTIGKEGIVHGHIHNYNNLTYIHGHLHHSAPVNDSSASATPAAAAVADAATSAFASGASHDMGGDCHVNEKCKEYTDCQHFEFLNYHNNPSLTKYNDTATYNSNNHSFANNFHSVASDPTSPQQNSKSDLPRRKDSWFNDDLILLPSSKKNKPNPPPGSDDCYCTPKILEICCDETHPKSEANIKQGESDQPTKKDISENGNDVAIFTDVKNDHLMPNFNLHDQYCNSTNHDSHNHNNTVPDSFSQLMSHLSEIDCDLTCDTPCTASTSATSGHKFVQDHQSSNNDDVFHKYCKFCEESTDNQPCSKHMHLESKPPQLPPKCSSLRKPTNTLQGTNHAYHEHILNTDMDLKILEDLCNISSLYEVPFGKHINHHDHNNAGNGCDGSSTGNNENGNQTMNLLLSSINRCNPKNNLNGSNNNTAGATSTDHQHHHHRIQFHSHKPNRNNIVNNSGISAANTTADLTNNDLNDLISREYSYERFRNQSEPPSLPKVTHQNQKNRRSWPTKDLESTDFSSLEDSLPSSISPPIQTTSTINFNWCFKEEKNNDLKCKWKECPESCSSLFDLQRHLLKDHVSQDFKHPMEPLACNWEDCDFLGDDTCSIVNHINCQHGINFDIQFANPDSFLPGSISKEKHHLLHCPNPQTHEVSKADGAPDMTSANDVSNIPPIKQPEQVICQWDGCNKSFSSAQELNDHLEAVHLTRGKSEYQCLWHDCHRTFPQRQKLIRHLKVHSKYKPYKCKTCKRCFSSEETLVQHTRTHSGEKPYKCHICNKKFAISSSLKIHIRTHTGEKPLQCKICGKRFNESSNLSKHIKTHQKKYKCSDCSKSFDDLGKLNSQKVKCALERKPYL
experiment: PBM E-score (8-mer binding enrichment) (E-score (-0.5 to 0.5)); higher = stronger / more preferred TF binding
settings: protein concentration: 200 nM; construct: GST-full length
In all, about 33,000 sequences were measured (“E-score (-0.5 to 0.5)”: median about -0.021, highest 2% from about 0.32 on). This is one part of a sample in which the highest values are shown more often than they occur.
Use -0.02 as the dividing line for PBM E-score, with the line itself on the t side and lower values as f.

Query: Is reported PBM E-score greater than or equal to -0.02 here: `ACCAGCGG`
Response: t

Query: Decide: PBM E-score of `CTCTGCAG` >= -0.02?
Response: f

Query: Please check the record `AGTTATTA` and state if its PBM E-score is at or above -0.02.
Response: t

Query: Please tell me: is the sequence `AGTTAGTA` at or over -0.02 in terms of PBM E-score?
Response: t

Query: Determine whether this sequence has PBM E-score no lower than -0.02: `GTGCTGAA`
Response: f

Query: Decide: is the reported value of PBM E-score for `CAACCCTA` equal to or greater than -0.02?
Response: t

Query: Would you say `ATCTGTCC` shows PBM E-score at minimum -0.02?
Response: f

Query: Answer whether PBM E-score of `GGTTATTA` is greater than or equal to -0.02.
Response: t

Query: Please check the record `CGTTAGTA` and state if its PBM E-score is at or above -0.02.
Response: t

Query: Assess whether reported PBM E-score for `TAAGACTA` sits at -0.02 or higher.
Response: t

Query: Form field: PBM E-score at least -0.02? Entry: `ATTCTCTC`
Response: f

Query: Identify whether the reported PBM E-score of the following sequence is -0.02 or greater: `AACCCCTA`
Response: t

Query: Exam item: decide whether the reported PBM E-score for `GGGAAACC` is at least -0.02.
Response: t

Query: # bool: PBM E-score of `AGGAAACC` >= -0.02
Response: t

Query: Determine whether measured PBM E-score meets or exceeds -0.02 for `AGGTTATA`
Response: t

Query: Could you verify whether the entry `ACCTTAGG` shows PBM E-score of no less than -0.02?
Response: t

Query: Is the recorded value of PBM E-score equal to or greater than -0.02 for this sequence? `TACAACAA`
Response: t

Query: Form field: PBM E-score at least -0.02? Entry: `GACAACTC`
Response: t

Query: Tell me whether PBM E-score is at least -0.02 here: `GGTTAGTA`
Response: t

Query: Quick check: does `CGGACTTC` have PBM E-score greater than or equal to -0.02?
Response: f

Query: Please tell me: is the sequence `CGGCTAGA` at or over -0.02 in terms of PBM E-score?
Response: f

Query: Hi team, for `GGGTAGTA` , is the recorded PBM E-score at or above -0.02?
Response: t

Query: Hi, just wondering whether `GGGAAAAC` shows PBM E-score of -0.02 or higher.
Response: f

Query: hey, is PBM E-score for this one >= -0.02? `GAAACTCC`
Response: f

Query: Does the reported PBM E-score for `CTTTCTTC` fall at or above the -0.02 mark?
Response: f

Query: Reported PBM E-score reaches at least -0.02 for `CGAGCGCC` ?
Response: f

Query: Can `GACAACCA` be said to have PBM E-score at or above -0.02?
Response: t

Query: For this sequence, is measured PBM E-score -0.02 or higher? `AATTCACC`
Response: t

Query: Tell me whether PBM E-score is at least -0.02 here: `AGACAAAC`
Response: f

Query: I'd appreciate it if you could say whether `GACTAGAC` has PBM E-score at least equal to -0.02.
Response: f

Query: Threshold query (PBM E-score >= -0.02) on `CGTACGAC`
Response: f

Query: Check this sequence for PBM E-score at or above -0.02: `CTTGTGAC`
Response: t

Query: Could you please find out whether `GGTTATCA` has PBM E-score that meets -0.02 or exceeds it?
Response: t

Query: Could you tell me if the measured PBM E-score of `AAGCCTGC` reaches -0.02 or more?
Response: f

Query: Does the reported PBM E-score for `CGGTTATA` fall at or above the -0.02 mark?
Response: t

Query: Is PBM E-score for `AGTTATCA` at or above -0.02?
Response: t

Query: Given the entry `CAACCCTG` , answer whether its PBM E-score meets or surpasses -0.02.
Response: t

Query: API: above_or_equal(metric=PBM E-score, cutoff=-0.02) for item `CATCAGCG`
Response: f

Query: Dear colleague, could you confirm whether `GACAACCC` has PBM E-score at or above -0.02?
Response: t

Query: Is the recorded value of PBM E-score equal to or greater than -0.02 for this sequence? `GCGTCCCC`
Response: f

Query: Item `GACAAACC` with PBM E-score of -0.02 or above?
Response: t

Query: Hi, just wondering whether `GAACCCTA` shows PBM E-score of -0.02 or higher.
Response: t

Query: Please indicate if the recorded PBM E-score for `AAACCCTA` meets or exceeds -0.02.
Response: t

Query: PBM E-score >= -0.02 for `ACTTTAGA` ?
Response: t

Query: In plain terms: is recorded PBM E-score at least -0.02 for `CGCTATCA` ?
Response: f

Query: API: above_or_equal(metric=PBM E-score, cutoff=-0.02) for item `AAGTTATC`
Response: t
